- System: CD2F1 mice, L1210 leukemia ip, survival T/C
- protocol.summary: NCI In Vivo Anticancer Drug Screen. Data for tumor model L1210 Leukemia (intraperitoneal) in CD2F1 (CDF1) mice
- condition.description: endpoint: mean survival time; dose: 25.0 mg/kg/injection; schedule: Q04DX003 (ip); vehicle: saline with Tween-80; higher = longer survival
Toxic doses and inconclusive results are not listed.
quantity.kind: T/C

Previously resolved entries follow.
O=[N+]([O-])CC1CCCCC1O (stereo not drawn) :: 93 % of control
Clc1c(Br)nc(Br)nc1C(Cl)(Cl)Cl :: 98 % of control

Could you now consider this next compound?
## Input What value of T/C on CD2F1 mice, L1210 leukemia ip, survival T/C does "CCc1nc2cc(C)c(C)cc2[nH]1" have?
## Output 89 % of control
